Overview of recorded Growth Rate for various compounds
test system: Fibroblast; experiment: Incucyte cell viability with human fibroblast; type: toxicity, cell-based; details: 12 h, 10 µM, compound concentration 10 uM, replicate number 2; also: unitless GR value; below 1 slowed growth and below 0 cell loss
Endpoint: Growth Rate

{"columns": ["Given Smiles", "Tgt", "Endpoint", "Quantitative Readout"],
 "data": [
  ["Cn1ncnc1COc1nn2c(-c3cc(F)ccc3F)nnc2cc1C(C)(C)C", "Fibroblast", "Growth Rate", 0.29],
  ["C[C@H](CCOc1cccc(CC(=O)O)c1)N(Cc1cccc(C(F)(F)F)c1Cl)CC(c1ccccc1)c1ccccc1.Cl", "Fibroblast", "Growth Rate", 0.55],
  ["CC(=O)c1ccc2c(c1)/C(=C(/NC1CCN(C)CC1)c1ccc3c(c1)OCO3)C(=O)N2", "Fibroblast", "Growth Rate", 0.74],
  ["COc1ncc2cc(C(=O)Nc3cc(C(=O)NCc4cccc(Cl)c4)ccc3Cl)c(=O)[nH]c2n1", "Fibroblast", "Growth Rate", 0.79],
  ["CCNCCNC(=O)c1c(C)[nH]c(/C=C2\\C(=O)Nc3ccc(F)cc32)c1C", "Fibroblast", "Growth Rate", 0.44]
]}
